These data points were gathered from PubChem BioAssay AID1508601.

The following molecules are shown together with reported nuclei count, normalised values.
assay: nuclear p53 accumulation, HPV+ cells – imaging, p53-positive nuclei imaging, 24 h, 48 h (AID 1508601); details: 24/48 h, measured here: cell number at 48 h, Library stock concentration: 80 uM
About 85 (1%) of roughly 5,700 compounds were called active. What follows is part of a selection rich in actives, with near analogues and random picks from the rest.
The figure you give is taken to be in %; do not add the unit.

Sample `CCC(=O)N1CCN(c2ccc(-n3c(=O)ccc4cnc5ccc(-c6cnc7ccccc7c6)cc5c43)cc2C(F)(F)F)CC1` — what was its nuclei count, normalised?
64.8

Then this molecule: `COc1ccc(Cn2ccc3ccc(C(=O)NO)cc32)cc1`
107

Then this molecule: CC(C)CC(C(=O)NC(Cc1ccc(OCc2ccccc2)cc1)C(=O)NC(C)(C)C)N(C)Cc1ccc(C(C)(C)C)cc1 (stereo not drawn)
103

Then this molecule: `COC(=O)N1C(=O)[C@](c2ccccc2)(C2CCCC2)N1C(=O)OC`
91.7

Then this molecule: CC(C)N(CCCNC(=O)Nc1ccc(C(C)(C)C)cc1)CC1OC(n2cc(Br)c3c(N)ncnc32)C(O)C1O (stereo not drawn)
98.8

Then this molecule: Cc1nc(Nc2n[nH]c3c2CN(C(=O)NC(CN(C)C)c2ccccc2)C3(C)C)c2sccc2n1 (stereo not drawn)
96.4

Then this molecule: CSCCC(NC=O)C(=O)NC(CC(C)C)C(=O)NC(Cc1ccccc1)C(=O)O (stereo not drawn)
97.1

Then this molecule: CC(NC(=O)c1cc(Cl)ccc1Oc1ccc(F)cc1)c1ccc(C(=O)O)cc1 (stereo not drawn)
117

Then this molecule: CCC(C)C(NC(=O)C(C(C)CC)N(C)C(C)=O)C(=O)NC(C(=O)NC(CC(C)C)C(=O)[C@@]1(C)CO1)C(C)O (stereo partly drawn)
41.4

Then this molecule: `CC(C)CC(=O)Nc1n[nH]c2c1CN(C(=O)C1CCN(C)CC1)C2(C)C`
91.5

Then this molecule: `CC(C)c1nn(-c2c(Cl)cccc2Cl)c2nc(Cc3ccc(OCCO)cc3)[nH]c(=O)c12`
50.6

Then this molecule: CC(C)C1C(=O)NC(CCCN=C(N)N)C(=O)NCC(=O)NC(CC(=O)O)C(=O)NC(Cc2ccccc2)C(=O)N1C (stereo not drawn)
94.6

Then this molecule: `CCN1CCN(Cc2ccc(NC(=O)c3ccc(C)c(Oc4ccnc5[nH]ccc45)c3)cc2C(F)(F)F)CC1`
116

Then this molecule: O=C(Nc1ccc(-c2ccnc(Nc3ccc(N4CCOCC4)cc3)n2)cc1)C1CCCN1 (stereo not drawn)
109
